Recorded values, source patent US20250237662A1.

Target: cynomolgus monkey IgG (cynoIgG)
Assay: direct ELISA, cynoIgG coated (hIgG1/CynoIgG screen), B-cell culture medium
EXPERIMENTAL READOUT: OD450 (OD450)
// return numeric value only (unit: OD450, not printed)

Solved entries:
INSERT INTO assay_data (binder, reported_value) VALUES
  ('rabbit anti-human IgG monoclonal antibody clone 11F9 (antibody, V domains shown) VH: QQQLEESGGGLVQPEGSLTLTCIASGFSFSSSHWICWVRQAPGKGLEWIACMSTSSGSTYDANWAKGRFTISKTSSTTVTLQMTSLTAADTATYFCARDVGGSTTYFDLWGPGTLVTVSS VL: AYDMTQTPASVSEPVGGTVTIKCQASQSISNELSWYQQKPGQPPKLLIYRASTLASGVPSRFKGSGSGTQFTLTINGVECADAATYYCQQGYSISNVDNTFGGGTEVVVKG', 0.089),
  ('rabbit anti-human IgG monoclonal antibody clone 19B1 (antibody, V domains shown) VH: QEQLVESGGGLVQPEGSLTLTCTASGFSFSDSYYMCWVRQAPGKGLEWIACIYGGTITNTYYASWAKGRFTISKTSSTTVTLQMTSLTAADTATYFCARDLGAAGDAYNLWGPGTLVTVSS VL: ASDMTQTPASVSEPVGGTVTIKCQASENIYSSLAWYQQKPGQPPKLLIYDASNLASGVPSRFSGSGSGTEFTLTISDLECADAATYYCQCTYRSSSSSYAFGGGTEVVVKG', 0.055);

Let us examine a further case.
Input line: OD450 lookup needed for rabbit anti-human IgG monoclonal antibody clone 2C5 (antibody, V domains shown) VH: QEQLVESGGDLVKPGASLTLTCTASGFSFSSGYYMCWVRQAPGKGLEWIACIYGGALTNTYYATWAKGRFTISKTSSTTVTLQMTSLTAADTATYFCARDLGAAGDAYNLWGPGTLVTVSS VL: ASDMTQTPASVSAAVGGTVTIKCQASESIYSGLAWYQQKPGQPPKLLIFDASDLASGVPSRFKGSRSETEYTLTISDLECADAATYYCQCTDRNSITSYAFGGGTEVVVKG , thanks.
Output line: 0.107
